Measured values drawn from PubChem BioAssay (NCI) for this set.

test system: HCC-2998 colon; experiment: NCI-60 one-dose screen, 48 h (100 = growth as untreated, 0 = no growth, -100 = all killed); conditions: 10 µM unless noted
This is part of a sample that, as a whole, favours compounds with a hit. Of some 83,000 tested, about 20% had one in any assay.

| compound | growth, % |
| --- | --- |
| CCOC(=O)c1nc(Nc2ccc(C(C)=O)cc2)sc1C | 114 |
| COc1ccc(N2C(=O)C(Oc3ccccc3)C2c2ccc(C)cc2)cc1 (stereo unspecified) | 97.7 |
| C=C1C(=O)O[C@H]2[C@H]1CC/C(COC(=O)CSCC(=O)OC/C1=C/CC[C@@]3(C)O[C@H]3[C@H]3OC(=O)C(=C)[C@@H]3CC1)=C\CC[C@@]1(C)O[C@@H]21 | 94.5 |
| O=C(CCc1nnc(-c2c(Cl)cccc2Cl)o1)c1nc2ccccc2[nH]1 | 65.9 |
| Nc1ccc(Sc2ccc([N+](=O)[O-])c3nonc23)cc1 | 108 |
| Cc1ccc(NC2=C(Cl)C(=O)c3nc(C)ccc3C2=O)cc1 | 4.99 |
| O=C(S)CNC(=O)c1ccccc1 | 101 |
| O=c1ccc(N=Nc2ccc([N+](=O)[O-])cc2)ccc1O | 22.3 |
| CCCCCCNC(=O)Oc1ccc(/C(=C(\C)c2ccc(Cl)cc2)c2ccc(OCCCN(C)C)cc2)cc1 | 82.3 |
| COc1cc(Nc2nc(NCCN)nc3cc[nH]c(=O)c23)cc(OC)c1 | 79.3 |
| COc1ccc(C(=O)C(C)C)c2ccccc12 | 107 |

====

tested on: SNB-19 CNS; assay: NCI-60 one-dose screen, 48 h; conditions: 10 µM unless noted
Compounds without any hit were thinned out: in the full panel of roughly 83,000, 20% have a hit. Activity calls are given as the source filed them. How the source made its calls: active means growth percent below 10; inactive means the rest.
Classes used: 1.0 for active, 0.0 for inactive

| compound | target_or_system | cat |
| --- | --- | --- |
| C=C1C(=O)O[C@H]2[C@H]1CC/C(COC(=O)NCCOCCOCC(=O)Nc1ccc(OC)c(C(N)=O)c1O)=C\CC[C@@]1(C)O[C@@H]21 | SNB-19 CNS | 0.0 |
| Cc1cccc2c3c(sc12)C(c1ccc(Cl)cc1)C(C#N)=C(N)O3 (centres undefined) | SNB-19 CNS | 0.0 |
| O=C(CCc1nnc(-c2c(Cl)cccc2Cl)o1)c1nc2ccccc2[nH]1 | SNB-19 CNS | 0.0 |
| Cc1ccccc1C(=O)NN | SNB-19 CNS | 0.0 |
| O=c1c2cc(F)ccc2sc2c(NCCN3CCOCC3)nc3ccccc3c12 | SNB-19 CNS | 0.0 |
| O=C(O)CCC/C=C\C[C@H]1C=CC(=O)/C1=C/C[C@@H](O)CCc1cccc(C(F)(F)F)c1 | SNB-19 CNS | 1.0 |
| CCc1cccc2c1S/C(=C/c1ccc(Cl)cc1)C2=O | SNB-19 CNS | 0.0 |
| O=C(Nc1ccc(Br)cc1F)c1cc(Br)ccc1O | SNB-19 CNS | 0.0 |
| Cc1c(C(=O)N[C@@H](Cc2ccccc2)C(=O)C(=O)NCc2ccc(F)cc2)[nH]c2ccccc2c1=O | SNB-19 CNS | 0.0 |

====

Listing of entries alongside the reported growth.
system: KM12 colon; assay: NCI-60 one-dose screen, 48 h (100 = growth as untreated, 0 = no growth, -100 = all killed); settings: 10 µM unless noted
The panel holds about 83,000 compounds, 20% with a hit somewhere; the sample as a whole holds those more often.

| compound | target_or_system | value_unit | growth |
| --- | --- | --- | --- |
| Cn1cc(C(=O)c2nc(-c3cn(C)c4ccc(F)cc34)no2)c2cc(F)ccc21 | KM12 colon | % | 95.2 |
| COc1ccc(-c2nc3sc(-c4ccccc4)cn3n2)cc1 | KM12 colon | % | 29.5 |
| O=C1NC(=O)C(c2ccccc2)(c2ccccc2)N1Cc1cn(-c2c3ccccc3nc3ccccc23)nn1 | KM12 colon | % | 91.2 |
| CCOC(=O)c1cnn2c3ccccc3n(S(=O)(=O)c3ccc(OC)cc3)c12 | KM12 colon | % | 25.9 |
| Cc1ccc(S(=O)(=O)Oc2ccc(NC(=O)c3ccc(Cl)cc3)cc2)cc1 | KM12 colon | % | 103 |
| C=C1CC[C@@]2(C#N)[C@H]3[C@H](CC[C@@H]2C)[C@@H](C)C[C@@H](CC(C)(C)C#N)[C@H]13 | KM12 colon | % | 35.7 |
| COc1cccc(Cc2cc(-c3ccccc3)nn(CC(=O)c3ccccc3)c2=O)c1 | KM12 colon | % | 57.8 |
| COc1ccc2c(c1)nc(NNC(=O)c1cnccn1)c1cccn12 | KM12 colon | % | 24.8 |
| O=c1cc(SCc2ccccc2)nc[nH]1 | KM12 colon | % | 94.8 |
| Cc1ccc(C(=O)N/N=C/c2cccc([N+](=O)[O-])c2)cn1 | KM12 colon | % | 107 |
| COc1ccc(CNC(=O)C(=O)[C@H](Cc2ccccc2)NC(=O)c2[nH]c3ccccc3c(=O)c2C)cc1 | KM12 colon | % | 101 |
| Nc1cc2c(cc1Br)-c1cc(Cl)ccc1C2=O | KM12 colon | % | 98.6 |
| CC(C)n1cnc2c(Nc3cccc(Cl)c3)nc(N[C@H]3CCCC[C@@H]3N)nc21 | KM12 colon | % | 13.5 |
| COc1ccc(N2C(=O)C(Oc3ccccc3)C2c2ccc(C)cc2)cc1 (stereo not drawn) | KM12 colon | % | 96.2 |
| O=c1c2cc(F)ccc2sc2c(N3CCCCC3)nc3ccccc3c12 | KM12 colon | % | 105 |
| Oc1c(I)cc(I)cc1CNCCCN(Cc1ccccn1)Cc1ccccn1 | KM12 colon | % | -85.1 |
| COc1cccc(OC)c1C(=O)N[C@@H]1C(=O)N2[C@@H]1SC(C)(C)[C@@H]2C(=O)O | KM12 colon | % | 107 |
| COc1ccc(-c2nc(NN)c3c(C)nn(-c4ccc(F)cc4)c3n2)cc1 | KM12 colon | % | 29.1 |
| COc1ccc(S(=O)(=O)n2c3ccccc3n3ncc(-c4nnc(C)o4)c23)cc1 | KM12 colon | % | 29.8 |
| COC(=O)Nc1ccc(-c2nc(-c3cccc(OC)c3)c(-c3ccnc(Br)c3)[nH]2)cc1 | KM12 colon | % | 48 |
| COc1ccc(/C=C2\Oc3cc(OCCN4CCC(Cc5ccccc5)CC4)ccc3C2=O)cc1OC | KM12 colon | % | 68.2 |
| COc1ccc(-c2ncnc3c2ncn3CC#CCCl)cc1 | KM12 colon | % | 72.6 |
| Cc1cccc2c3c(sc12)C(c1ccc(Cl)cc1)C(C#N)=C(/N=C/c1ccc(Cl)cc1)O3 (stereo not drawn) | KM12 colon | % | 9.86 |
